assayed-target: p110δ/p85α (Homo sapiens (Human))
test-method-notes: PI3K δ inhibition assay (TLC lipid kinase or HTRF)
measure: IC50

Give the value of IC50 reported for the following: Cc1cccc2cc(Cn3nc(-c4cccc(O)c4)c4c(N)ncnc43)c(N3CCN(C)CC3)nc12 [Compound 13]
< 100 nM

Give the value of IC50 reported for the following: CCn1c(=O)c(Cn2nc(-c3cc(O)cc(F)c3)c3c(N)ncnc32)cc2ccccc21 [Compound 113]
< 100 nM

Give the value of IC50 reported for the following: Cc1nccn1-c1cc2ccccc2cc1Cn1nc(-c2ccc3nc(N)sc3c2)c2c(N)ncnc21 [Compound 175]
< 100 nM

Further cases:
Give the value of IC50 reported for the following: CN1CCN(c2nc3ccccc3cc2Cn2nc(-c3cccc(O)c3)c3c(N)ncnc32)CC1 [Compound 43]
< 100 nM

Give the value of IC50 reported for the following: Cc1ccccc1-c1ncccc1Cn1nc(-c2cc(O)cc(F)c2)c2c(N)ncnc21 [Compound 121]
> 1000 nM

Give the value of IC50 reported for the following: Nc1ncnc2c1c(-c1cc(O)cc(F)c1)nn2Cc1nc2ccccc2nc1N1CCCC1 [Compound 104]
< 100 nM

Give the value of IC50 reported for the following: CC(C)N(C)c1nc2ccccc2cc1Cn1nc(-c2cccc(O)c2)c2c(N)ncnc21 [Compound 150]
< 100 nM

Give the value of IC50 reported for the following: Nc1nc2cc(-c3nn(Cc4cc5ccccc5nc4-c4ccccc4C(F)(F)F)c4ncnc(N)c34)ccc2[nH]1 [Compound 155]
< 100 nM

Give the value of IC50 reported for the following: CN1CCN(c2nc3ccccc3cc2Cn2nc(-c3cc(O)cc(F)c3)c3c(N)ncnc32)CC1 [Compound 50]
< 100 nM

Give the value of IC50 reported for the following: Nc1ncnc2ccc(-c3nn(Cc4cc5ccccc5nc4N4CCOCC4)c4ncnc(N)c34)cc12 [Compound 142]
< 100 nM

Give the value of IC50 reported for the following: CN1CCN(c2nc3ccccc3cc2Cn2nc(-c3cnc4[nH]ccc4c3)c3c(N)ncnc32)CC1 [Compound 74]
< 100 nM

* * *

assayed-target: p110α/p85α (Homo sapiens (Human))
Sequence (P42336 whole entry): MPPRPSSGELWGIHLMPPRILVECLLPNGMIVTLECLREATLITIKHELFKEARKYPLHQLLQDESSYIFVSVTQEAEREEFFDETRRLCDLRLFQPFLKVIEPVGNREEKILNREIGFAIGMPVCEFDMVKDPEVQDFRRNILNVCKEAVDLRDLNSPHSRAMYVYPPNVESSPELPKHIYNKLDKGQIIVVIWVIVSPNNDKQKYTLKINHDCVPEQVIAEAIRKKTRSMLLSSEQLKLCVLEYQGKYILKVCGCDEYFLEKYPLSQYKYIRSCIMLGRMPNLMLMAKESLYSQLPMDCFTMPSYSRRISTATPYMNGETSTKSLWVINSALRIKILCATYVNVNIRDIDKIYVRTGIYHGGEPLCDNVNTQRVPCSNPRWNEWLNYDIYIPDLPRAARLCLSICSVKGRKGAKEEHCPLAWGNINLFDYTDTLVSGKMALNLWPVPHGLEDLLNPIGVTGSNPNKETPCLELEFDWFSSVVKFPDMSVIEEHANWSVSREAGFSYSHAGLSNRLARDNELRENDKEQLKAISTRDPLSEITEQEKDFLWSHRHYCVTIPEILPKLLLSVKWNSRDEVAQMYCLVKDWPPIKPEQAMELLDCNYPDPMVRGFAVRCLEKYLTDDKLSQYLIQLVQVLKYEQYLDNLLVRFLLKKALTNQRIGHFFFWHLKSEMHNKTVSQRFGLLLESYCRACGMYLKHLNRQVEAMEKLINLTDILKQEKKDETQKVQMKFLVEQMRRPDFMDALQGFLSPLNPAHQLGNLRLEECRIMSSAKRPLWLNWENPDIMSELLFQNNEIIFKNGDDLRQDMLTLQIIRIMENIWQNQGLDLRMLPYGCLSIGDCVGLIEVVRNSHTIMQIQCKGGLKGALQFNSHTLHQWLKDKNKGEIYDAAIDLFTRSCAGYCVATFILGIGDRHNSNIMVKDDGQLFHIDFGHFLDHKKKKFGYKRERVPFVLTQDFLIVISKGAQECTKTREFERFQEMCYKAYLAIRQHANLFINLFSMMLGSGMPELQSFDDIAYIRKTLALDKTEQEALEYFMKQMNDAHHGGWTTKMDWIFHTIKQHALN
Sequence (P27986 whole entry partner): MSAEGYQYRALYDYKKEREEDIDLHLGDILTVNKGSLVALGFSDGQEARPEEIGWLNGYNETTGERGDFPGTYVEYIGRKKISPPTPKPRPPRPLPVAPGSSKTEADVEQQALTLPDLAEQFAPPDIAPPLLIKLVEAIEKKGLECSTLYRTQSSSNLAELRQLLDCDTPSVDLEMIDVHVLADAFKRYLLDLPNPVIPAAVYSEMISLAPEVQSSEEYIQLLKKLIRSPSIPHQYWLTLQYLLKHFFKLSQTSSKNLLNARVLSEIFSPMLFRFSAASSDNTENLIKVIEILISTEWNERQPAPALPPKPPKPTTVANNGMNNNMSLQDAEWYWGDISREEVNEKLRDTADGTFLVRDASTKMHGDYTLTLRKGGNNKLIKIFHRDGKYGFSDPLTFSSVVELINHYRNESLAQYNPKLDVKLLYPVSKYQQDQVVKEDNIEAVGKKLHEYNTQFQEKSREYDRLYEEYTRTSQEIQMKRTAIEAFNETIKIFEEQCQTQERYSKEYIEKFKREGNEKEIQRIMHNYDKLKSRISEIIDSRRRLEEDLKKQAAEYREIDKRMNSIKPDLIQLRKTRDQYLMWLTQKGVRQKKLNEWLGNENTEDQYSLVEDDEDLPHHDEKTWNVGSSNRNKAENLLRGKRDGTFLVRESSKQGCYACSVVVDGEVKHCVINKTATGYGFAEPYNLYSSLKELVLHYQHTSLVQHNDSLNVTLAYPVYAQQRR
test-method-notes: PI3K α inhibition assay (TLC lipid kinase or HTRF)
measure: IC50

The examples below pair each entry with its known result.
Give the value of IC50 reported for the following: CC(C)Oc1nc2ccccc2cc1Cn1nc(-c2ccc3nc(N)sc3c2)c2c(N)ncnc21
0.1 to 1 µM

Give the value of IC50 reported for the following: Nc1ccc2cc(-c3nn(Cc4cc5ccccc5nc4N4CCOCC4)c4ncnc(N)c34)ccc2n1
< 0.1 µM

Give the value of IC50 reported for the following: CC(C)c1ccccc1-c1nc2ccccc2cc1Cn1nc(-c2cc(O)cc(F)c2)c2c(N)ncnc21
0.1 to 1 µM

Give the value of IC50 reported for the following: CCC(c1cc2ccccc2nc1N1CCCC1)n1nc(-c2cccc(O)c2)c2c(N)ncnc21 (stereo not shown)
> 1 µM

Give the value of IC50 reported for the following: Nc1nc2ccc(-c3nn(Cc4cc5ccccc5nc4N4CCCC4)c4ncnc(N)c34)cc2s1 [Compound 196]
0.1 to 1 µM

Give the value of IC50 reported for the following: CC(Nc1ncnc2[nH]cnc12)c1cc2ccccc2nc1N1CCCC1 (stereo not shown)
> 1 µM

Alright, here's another compound for you.
Give the value of IC50 reported for the following: Cc1ccccc1-c1nc2ccccc2cc1Cn1nc(-c2ccc3nc(N)[nH]c3c2)c2c(N)ncnc21
> 1 µM

* * *

assayed-target: p110β/p85α (Homo sapiens)
test-method-notes: PI3K β inhibition assay (TLC lipid kinase or HTRF)
Assay type: biochemical
condition-details: read-out: PI3K β IC50
measure: IC50

The examples below pair each entry with its known result.
Give the value of IC50 reported for the following: CC(=O)Nc1nc2ccc(-c3nn(Cc4cc5ccccc5nc4-n4cnc(C)c4)c4ncnc(N)c34)cc2s1
> 1 µM

Give the value of IC50 reported for the following: CCc1nc2ccccc2cc1Cn1nc(-c2ccc3nc(NC(C)=O)sc3c2)c2c(N)ncnc21
> 1 µM

Give the value of IC50 reported for the following: Cc1cccc2cc(Cn3nc(-c4cc(O)cc(F)c4)c4c(N)ncnc43)c(N3CCCC3)nc12
> 1 µM

Give the value of IC50 reported for the following: Cc1cccc2cc(Cn3nc(I)c4c(N)ncnc43)c(N3CCCC3)nc12
> 1 µM

Further cases:
Give the value of IC50 reported for the following: N#Cc1nn(Cc2cc3ccccc3nc2-c2ccccc2F)c2ncnc(N)c12
> 1 µM

Give the value of IC50 reported for the following: CC(=O)Nc1nc2ccc(-c3nn(Cc4cc5ccccc5nc4N(C)C)c4ncnc(N)c34)cc2s1
< 0.1 µM

Give the value of IC50 reported for the following: CC(C)c1ccccc1-c1nc2ccccc2cc1Cn1nc(-c2cc(O)cc(F)c2)c2c(N)ncnc21
0.1 to 1 µM

Give the value of IC50 reported for the following: Nc1cc(-c2nn(Cc3cc4ccccc4nc3-c3ccccc3)c3ncnc(N)c23)ccn1
> 1 µM

Give the value of IC50 reported for the following: Nc1cc(-c2nn(Cc3cc4ccccc4nc3-c3ccccc3F)c3ncnc(N)c23)ccn1
> 1 µM

* * *

assayed-target: p110β/p85α (Homo sapiens, UniProt P42338)
Sequence (P42338 whole entry, looked up): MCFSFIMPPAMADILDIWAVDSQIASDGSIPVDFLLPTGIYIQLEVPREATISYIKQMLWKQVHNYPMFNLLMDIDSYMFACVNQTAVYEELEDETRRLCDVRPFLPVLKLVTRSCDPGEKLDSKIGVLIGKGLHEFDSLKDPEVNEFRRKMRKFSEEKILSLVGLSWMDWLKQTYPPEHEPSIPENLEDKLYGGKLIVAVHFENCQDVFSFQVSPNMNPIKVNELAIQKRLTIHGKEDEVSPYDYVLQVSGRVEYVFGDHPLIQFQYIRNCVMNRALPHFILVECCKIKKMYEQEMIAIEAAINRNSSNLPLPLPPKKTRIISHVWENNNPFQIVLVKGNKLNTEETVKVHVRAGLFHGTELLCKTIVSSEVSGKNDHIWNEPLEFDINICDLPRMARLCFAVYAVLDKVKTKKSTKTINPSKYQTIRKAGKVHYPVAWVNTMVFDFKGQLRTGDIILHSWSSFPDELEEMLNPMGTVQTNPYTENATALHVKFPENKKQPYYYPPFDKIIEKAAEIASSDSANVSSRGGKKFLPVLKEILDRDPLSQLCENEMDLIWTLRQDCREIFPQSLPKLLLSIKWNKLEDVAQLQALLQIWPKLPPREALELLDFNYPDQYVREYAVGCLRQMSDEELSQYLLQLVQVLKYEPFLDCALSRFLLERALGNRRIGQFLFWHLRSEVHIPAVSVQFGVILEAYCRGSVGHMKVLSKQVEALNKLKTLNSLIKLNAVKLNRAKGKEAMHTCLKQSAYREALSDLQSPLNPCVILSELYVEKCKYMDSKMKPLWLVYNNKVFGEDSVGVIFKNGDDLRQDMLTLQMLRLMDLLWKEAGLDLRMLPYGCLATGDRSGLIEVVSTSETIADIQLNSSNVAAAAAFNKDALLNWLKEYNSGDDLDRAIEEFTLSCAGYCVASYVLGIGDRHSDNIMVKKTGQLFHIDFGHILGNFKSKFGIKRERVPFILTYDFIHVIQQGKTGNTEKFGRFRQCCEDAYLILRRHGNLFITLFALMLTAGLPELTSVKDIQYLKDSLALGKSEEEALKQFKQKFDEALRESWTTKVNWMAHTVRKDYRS
test-method-notes: PI3K β inhibition assay (TLC lipid kinase or HTRF)
Assay type: biochemical
condition-details: read-out: PI3K β IC50
measure: IC50

Give the value of IC50 reported for the following: CC(=O)Nc1nc2ccc(-c3nn(Cc4cc5ccccc5nc4N4CCN(C)CC4)c4ncnc(N)c34)cc2[nH]1
100 to 1000 nM

Give the value of IC50 reported for the following: CC(c1cc2ccccc2nc1N1CCN(C)CC1)n1nc(-c2cccc(O)c2)c2c(N)ncnc21 (centres unmarked)
100 to 1000 nM

Give the value of IC50 reported for the following: Nc1ncnc2ccc(-c3nn(Cc4cc5ccccc5nc4N4CCOCC4)c4ncnc(N)c34)cc12
> 1000 nM

Give the value of IC50 reported for the following: CC(c1cc2ccccc2nc1-c1ccccc1)n1nc(C#C[C@@H](C)O)c2c(N)ncnc21 (some centres unmarked)
> 1000 nM

Give the value of IC50 reported for the following: Nc1ncnc2ccc(-c3nn(Cc4cc5ccccc5nc4-c4ccccc4)c4ncnc(N)c34)cc12
> 1000 nM

Further cases:
Give the value of IC50 reported for the following: CC(C)n1c(=O)c(Cn2nc(-c3cccc(O)c3)c3c(N)ncnc32)cc2ccccc21
> 1000 nM

* * *

molecules and their reported pIC50
assayed-target: p110δ/p85α (Homo sapiens (Human), UniProt O00329)
Sequence (O00329 whole entry): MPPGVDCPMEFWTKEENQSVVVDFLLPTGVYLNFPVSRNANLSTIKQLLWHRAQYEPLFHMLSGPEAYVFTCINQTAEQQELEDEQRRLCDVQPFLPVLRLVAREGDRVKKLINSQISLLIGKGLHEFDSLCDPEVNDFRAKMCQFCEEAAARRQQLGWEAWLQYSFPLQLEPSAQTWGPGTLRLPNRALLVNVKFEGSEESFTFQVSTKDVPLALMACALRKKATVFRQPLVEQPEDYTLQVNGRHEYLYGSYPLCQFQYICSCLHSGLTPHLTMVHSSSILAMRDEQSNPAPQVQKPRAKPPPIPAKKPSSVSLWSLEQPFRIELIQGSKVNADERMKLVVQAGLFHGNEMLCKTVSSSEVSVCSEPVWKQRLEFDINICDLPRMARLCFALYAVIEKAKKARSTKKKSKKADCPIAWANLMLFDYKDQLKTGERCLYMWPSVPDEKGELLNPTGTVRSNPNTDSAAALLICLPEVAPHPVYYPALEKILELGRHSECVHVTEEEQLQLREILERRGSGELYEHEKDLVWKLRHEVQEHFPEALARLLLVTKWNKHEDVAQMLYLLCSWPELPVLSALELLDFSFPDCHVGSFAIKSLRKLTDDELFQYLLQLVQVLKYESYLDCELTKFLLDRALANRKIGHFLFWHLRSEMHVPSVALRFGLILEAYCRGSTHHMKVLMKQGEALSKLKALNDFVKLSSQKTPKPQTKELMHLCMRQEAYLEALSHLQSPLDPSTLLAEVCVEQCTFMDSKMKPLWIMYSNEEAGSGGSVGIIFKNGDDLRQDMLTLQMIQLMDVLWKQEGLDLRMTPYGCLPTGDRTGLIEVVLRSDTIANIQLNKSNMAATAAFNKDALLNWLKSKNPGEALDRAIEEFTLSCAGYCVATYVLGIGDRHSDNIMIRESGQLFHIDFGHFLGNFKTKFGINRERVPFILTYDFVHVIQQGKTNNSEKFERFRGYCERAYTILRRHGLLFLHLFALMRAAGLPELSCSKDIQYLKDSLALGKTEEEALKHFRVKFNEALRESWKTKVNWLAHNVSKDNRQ
Sequence (P27986 whole entry partner): as the sequence (P27986 whole entry partner) above
test-method-notes: PI3K δ inhibition assay (TLC lipid kinase or HTRF)
pIC50: −log10 of the molar value.

Give the value of pIC50 reported for the following: CC(C)N(C)c1nc2ccccc2cc1Cn1nc(-c2ccc3nc(N)sc3c2)c2c(N)ncnc21
> 7.00

Give the value of pIC50 reported for the following: Nc1ncnc2c1c(-c1cc(O)cc(F)c1)nn2Cc1cc2ccccc2nc1N1CCOCC1
> 7.00

Give the value of pIC50 reported for the following: CN1CCN(c2nc3ccccc3cc2CNc2ncnc3[nH]cnc23)CC1
< 6.00

Give the value of pIC50 reported for the following: C[C@@H](O)C#Cc1nn(Cc2cc3ccccc3nc2N2CCN(C)CC2)c2ncnc(N)c12
< 6.00

Give the value of pIC50 reported for the following: CC(C)Oc1nc2ccccc2cc1Cn1nc(-c2ccc3nc(N)sc3c2)c2c(N)ncnc21
> 7.00

Give the value of pIC50 reported for the following: CC(=O)Nc1nc2ccc(-c3nn(Cc4cc5ccccc5nc4N(C)C(C)C)c4ncnc(N)c34)cc2s1
> 7.00

Further cases:
Give the value of pIC50 reported for the following: CC(C)n1c(=O)c(Cn2nc(-c3cccc(O)c3)c3c(N)ncnc32)cc2ccccc21
6.00 to 7.00

Give the value of pIC50 reported for the following: CC(c1cc2ccccc2nc1N1CCCC1)n1nc(-c2cc(O)cc(F)c2)c2c(N)ncnc21 (stereo not shown)
> 7.00

Give the value of pIC50 reported for the following: Nc1ncnc2c1c(-c1cc(O)cc(F)c1)nn2Cc1cc2ccccc2nc1CN1CCCC1
> 7.00

Give the value of pIC50 reported for the following: Cc1ccccc1-c1nc2ccccc2cc1Cn1nc(-c2ccc3nc(N)[nH]c3c2)c2c(N)ncnc21
> 7.00

Give the value of pIC50 reported for the following: CCc1nc2ccccc2cc1Cn1nc(-c2cc(O)cc(F)c2)c2c(N)ncnc21
> 7.00

Give the value of pIC50 reported for the following: Nc1nc2ccc(-c3nn(Cc4cc5ccccc5nc4N4CCCC4)c4ncnc(N)c34)cc2s1 [Compound 196]
> 7.00

Give the value of pIC50 reported for the following: CN1CCN(c2nc3ccccc3cc2Cn2cnc3c(N)ncnc32)CC1
< 6.00

Give the value of pIC50 reported for the following: CCC(c1cc2ccccc2nc1N1CCCC1)n1nc(-c2cccc(O)c2)c2c(N)ncnc21 (stereo not shown)
> 7.00
